# System: NCI-H23 complex spheroids with HUVEC/MSC, viability
# test_summary: Anticancer human tumor NCI-H23 cell line growth inhibition [RAS];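 also: spheroids exposed to compound for 7 days; 100% = DMSO vehicle control viability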
# run_conditions: second compound 0.0949 µM; first compound 0.0316 µM; hits give low values
Consider the following compounds and their measured viability, T/C readings.
assay_metric: viability, T/C

# compound, observed_result
measured = [
    ("CCC(CC)c1cc(NC2CCC(N)C2)n2nccc2n1 (stereo not given) + CCn1c(-c2cc(N3CCN(C)CC3)cnc2C(C)OC)c2c3cc(ccc31)-c1csc(n1)CC(NC(=O)C1CC1C)C(=O)N1CCCC(N1)C(=O)OCC(C)(C)C2", "22.9%"),
    ("C[C@@H](NC(=O)c1ncnc(N)c1Cl)c1ncc(C(=O)Nc2cc(C(F)(F)F)c(Cl)cn2)s1 + CCn1c(-c2cc(N3CCN(C)CC3)cnc2C(C)OC)c2c3cc(ccc31)-c1csc(n1)CC(NC(=O)C1CC1C)C(=O)N1CCCC(N1)C(=O)OCC(C)(C)C2", "21.1%"),
    ("Cc1nc(N2CCC3(CC2)COC(C)C3N)c(CO)nc1Sc1ccnc(N)c1Cl (stereo not given) + CCn1c(-c2cc(N3CCN(C)CC3)cnc2C(C)OC)c2c3cc(ccc31)-c1csc(n1)CC(NC(=O)C1CC1C)C(=O)N1CCCC(N1)C(=O)OCC(C)(C)C2", "17.3%"),
    ("C=CC(=O)Nc1cc(Nc2nccc(-c3cn(C)c4ccccc34)n2)c(OC)cc1N(C)CCN(C)C + CCn1c(-c2cccnc2C(C)OC)c2c3cc(ccc31)N1CCOC(CC(NC(=O)C(C(C)C)N(C)C(=O)C3(F)CCN(C(=O)C#CC(C)(C)N(C)C)CC3)C(=O)N3CCCC(N3)C(=O)OCC(C)(C)C2)C1", "31%"),
    ("CC1(O)CCCC1n1c(=O)c(C(F)F)cc2cnc(NC3CCN(S(C)(=O)=O)CC3)nc21 (stereo not given) + CCn1c(-c2cc(N3CCN(C)CC3)cnc2C(C)OC)c2c3cc(ccc31)-c1csc(n1)CC(NC(=O)C1CC1C)C(=O)N1CCCC(N1)C(=O)OCC(C)(C)C2", "17.3%"),
]
